ASSAYED SYSTEM: Methanococcus maripaludis chaperonin (MmCpn)
ASSAY PROCEDURE: High-Throughput Screening for Modulators of Cytosolic Chaperonin Activity: MmCpn Primary Screen (AID 488978);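 note: 50 nM MmCpn enzyme hydrolysing 30 µM ATP at 37 °C; 0% is about no effect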
CONDITION DETAILS: Purified MmCpn ATPase activity, ADP HTRF detection, 10 min; series mostly up to 76.9 µM
Text: Chaperonins are key components of the cellular chaperone machinery. These large complexes consist of two stacked 7-9 membered rings, each containing a central cavity. Substrates are folded within the cavity in an ATP-dependent manner. TRiC is a complex of eight different, essential proteins. […] 7. Read using EnVision plate reader at Excitation = 320nm and Emission = 590nm, 665nm
Active and inactive are the calls of the source. Calls come from the whole dose curve; as a rule, active = well fitted curve in the direction sought with a large enough effect; inconclusive = small, poorly fitted or top-dose-only effect, or another doubt; inactive = no such curve, though single readings can be large or run the other way.
PROPERTY LABEL: outcome

Worked set:
NCCc1ccc(O)cc1    inactive
CC(C)N(CCC(C(N)=O)(c1ccccc1)c1ccccn1)C(C)C (stereo not given)    inactive
CC(C)(C)NCC(O)c1ccccc1Cl (stereo not given)    inactive
O=C(CCCN1CCC2(CC1)C(=O)NCN2c1ccccc1)c1ccc(F)cc1    inactive
CN1C(=O)CCS(=O)(=O)C1c1ccc(Cl)cc1 (stereo not given)    inactive
Cc1ncsc1CCCl    inactive
CCCCC/C=C\C/C=C\C/C=C\C/C=C\CCCC(=O)NCC(=O)O    inactive
O=P1(N(CCCl)CCCl)NCCCO1 (stereo not given)    inactive
C=C(C)[C@H]1CN[C@H](C(=O)O)[C@H]1CC(=O)O    inactive

Turning now to a further record.
Item CC(NC(C)(C)C)C(=O)c1cccc(Cl)c1 (stereo not given) was tested on Methanococcus maripaludis chaperonin (MmCpn); the reported outcome is inactive

###

Measured activity change, negative = inhibition accompanies every entry in the list below.
ASSAY PROCEDURE: Primary qHTS to identify inhibitors of SARS-CoV-2 cell entry (AID 1645846); note: nearly all actives have a fitted effect of over 45% in size
CONDITION DETAILS: SARS-CoV-2 pseudovirus cell entry assay, luminescence; at 57.1 µM (top of the series) unless noted
Records with an inconclusive call do not appear.
Expressed in %, but write only the number.

Worked set:
NS(=O)(=O)c1cc(Cl)c(Cl)c(S(N)(=O)=O)c1    -0.105
CC1CCN(CCCC(=O)c2ccc(F)cc2)CC1    -25
CN[C@@H]1CCc2[nH]c3ccc(C(N)=O)cc3c2C1    -34.4

Entry `NS(=O)(=O)c1cc(-c2nn[nH]n2)c(NCc2cccs2)cc1Cl` — recorded activity change, negative = inhibition = -3.88

Entry `NCCS(=O)(=O)O` — recorded activity change, negative = inhibition = -2.14

Entry `CC(C)=CCC/C(C)=C/CO` — recorded activity change, negative = inhibition = 2.42

Entry `CC(=O)OCC1=C(C(=O)O)N2C(=O)[C@@H](NC(=O)Cc3cccs3)[C@H]2SC1` — recorded activity change, negative = inhibition = 1.38

Entry `C[N+](C)(C)CCCCCC[N+](C)(C)C` — recorded activity change, negative = inhibition = -3.21

Entry `CCCCCCCCCCCCOCCO` — recorded activity change, negative = inhibition = -19.3

Entry CC(CN(C)C)C(C)(O)Cc1ccc(Cl)cc1 (configuration not stated) — recorded activity change, negative = inhibition = 0.771

###

System: CP266
ASSAY PROCEDURE: qHTS profiling for inhibitors of Plasmodium falciparum proliferation (AID 504749);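 note: 0% = DMSO vehicle and full inhibition = artemisinin control; nearly all actives have a fitted effect of over 60% in size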
CONDITION DETAILS: P. falciparum in erythrocytes, SYBR Green DNA, 72 h; series mostly up to 28.7 µM
Method: NIH National Institute of Allergy and Infectious Diseases [NIAID] NIH Chemical Genomics Center [NCGC] […] Because mature erythrocytes lack DNA, only Plasmodium-derived DNA is detected. NCGC Assay Protocol Summary: The SYBR Green viability assay was adapted from a method described previously (Plouffe et al., 2008). […] The following morning, fluorescence intensity at 485(14) nm excitation and 535(25) nm emission wavelengths was measured on an EnVision (Perkin Elmer) plate reader. […]
Results filed as inconclusive are left out. Activity calls are given as the source filed them. Calls follow the shape of the dose curve; as a rule, active = well fitted inhibition curve with a large enough effect; inconclusive = small, poorly fitted or top-dose-only effect; inactive = flat fitted curve, though single readings scatter.
PROPERTY LABEL: outcome

Worked set:
COc1ccc2c(c1OC)C(=O)O[C@H]2[C@@H]1c2cc3c(cc2CCN1C)OCO3    inactive
CN1C(=O)COc2c(C(=O)NC3CN4CCC3CC4)cc(Cl)cc21 (stereo not given)    inactive
NC(=O)c1cc([N+](=O)[O-])cc([N+](=O)[O-])c1    inactive
COP(=S)(OC)Oc1ccc(SC)c(C)c1    inactive

Entry CN1CCC(O)(c2ccc(F)cc2)C(C(=O)c2ccc(F)cc2)C1 (stereo not given) — recorded outcome = inactive
